Field: pIC50. Provide a value for each of the compounds that follow.
# target: LRRK2 WT (Homo sapiens, UniProt Q5S007)
# Construct: purchased Life Technologies PR8604B
# Sequence (Q5S007 whole entry): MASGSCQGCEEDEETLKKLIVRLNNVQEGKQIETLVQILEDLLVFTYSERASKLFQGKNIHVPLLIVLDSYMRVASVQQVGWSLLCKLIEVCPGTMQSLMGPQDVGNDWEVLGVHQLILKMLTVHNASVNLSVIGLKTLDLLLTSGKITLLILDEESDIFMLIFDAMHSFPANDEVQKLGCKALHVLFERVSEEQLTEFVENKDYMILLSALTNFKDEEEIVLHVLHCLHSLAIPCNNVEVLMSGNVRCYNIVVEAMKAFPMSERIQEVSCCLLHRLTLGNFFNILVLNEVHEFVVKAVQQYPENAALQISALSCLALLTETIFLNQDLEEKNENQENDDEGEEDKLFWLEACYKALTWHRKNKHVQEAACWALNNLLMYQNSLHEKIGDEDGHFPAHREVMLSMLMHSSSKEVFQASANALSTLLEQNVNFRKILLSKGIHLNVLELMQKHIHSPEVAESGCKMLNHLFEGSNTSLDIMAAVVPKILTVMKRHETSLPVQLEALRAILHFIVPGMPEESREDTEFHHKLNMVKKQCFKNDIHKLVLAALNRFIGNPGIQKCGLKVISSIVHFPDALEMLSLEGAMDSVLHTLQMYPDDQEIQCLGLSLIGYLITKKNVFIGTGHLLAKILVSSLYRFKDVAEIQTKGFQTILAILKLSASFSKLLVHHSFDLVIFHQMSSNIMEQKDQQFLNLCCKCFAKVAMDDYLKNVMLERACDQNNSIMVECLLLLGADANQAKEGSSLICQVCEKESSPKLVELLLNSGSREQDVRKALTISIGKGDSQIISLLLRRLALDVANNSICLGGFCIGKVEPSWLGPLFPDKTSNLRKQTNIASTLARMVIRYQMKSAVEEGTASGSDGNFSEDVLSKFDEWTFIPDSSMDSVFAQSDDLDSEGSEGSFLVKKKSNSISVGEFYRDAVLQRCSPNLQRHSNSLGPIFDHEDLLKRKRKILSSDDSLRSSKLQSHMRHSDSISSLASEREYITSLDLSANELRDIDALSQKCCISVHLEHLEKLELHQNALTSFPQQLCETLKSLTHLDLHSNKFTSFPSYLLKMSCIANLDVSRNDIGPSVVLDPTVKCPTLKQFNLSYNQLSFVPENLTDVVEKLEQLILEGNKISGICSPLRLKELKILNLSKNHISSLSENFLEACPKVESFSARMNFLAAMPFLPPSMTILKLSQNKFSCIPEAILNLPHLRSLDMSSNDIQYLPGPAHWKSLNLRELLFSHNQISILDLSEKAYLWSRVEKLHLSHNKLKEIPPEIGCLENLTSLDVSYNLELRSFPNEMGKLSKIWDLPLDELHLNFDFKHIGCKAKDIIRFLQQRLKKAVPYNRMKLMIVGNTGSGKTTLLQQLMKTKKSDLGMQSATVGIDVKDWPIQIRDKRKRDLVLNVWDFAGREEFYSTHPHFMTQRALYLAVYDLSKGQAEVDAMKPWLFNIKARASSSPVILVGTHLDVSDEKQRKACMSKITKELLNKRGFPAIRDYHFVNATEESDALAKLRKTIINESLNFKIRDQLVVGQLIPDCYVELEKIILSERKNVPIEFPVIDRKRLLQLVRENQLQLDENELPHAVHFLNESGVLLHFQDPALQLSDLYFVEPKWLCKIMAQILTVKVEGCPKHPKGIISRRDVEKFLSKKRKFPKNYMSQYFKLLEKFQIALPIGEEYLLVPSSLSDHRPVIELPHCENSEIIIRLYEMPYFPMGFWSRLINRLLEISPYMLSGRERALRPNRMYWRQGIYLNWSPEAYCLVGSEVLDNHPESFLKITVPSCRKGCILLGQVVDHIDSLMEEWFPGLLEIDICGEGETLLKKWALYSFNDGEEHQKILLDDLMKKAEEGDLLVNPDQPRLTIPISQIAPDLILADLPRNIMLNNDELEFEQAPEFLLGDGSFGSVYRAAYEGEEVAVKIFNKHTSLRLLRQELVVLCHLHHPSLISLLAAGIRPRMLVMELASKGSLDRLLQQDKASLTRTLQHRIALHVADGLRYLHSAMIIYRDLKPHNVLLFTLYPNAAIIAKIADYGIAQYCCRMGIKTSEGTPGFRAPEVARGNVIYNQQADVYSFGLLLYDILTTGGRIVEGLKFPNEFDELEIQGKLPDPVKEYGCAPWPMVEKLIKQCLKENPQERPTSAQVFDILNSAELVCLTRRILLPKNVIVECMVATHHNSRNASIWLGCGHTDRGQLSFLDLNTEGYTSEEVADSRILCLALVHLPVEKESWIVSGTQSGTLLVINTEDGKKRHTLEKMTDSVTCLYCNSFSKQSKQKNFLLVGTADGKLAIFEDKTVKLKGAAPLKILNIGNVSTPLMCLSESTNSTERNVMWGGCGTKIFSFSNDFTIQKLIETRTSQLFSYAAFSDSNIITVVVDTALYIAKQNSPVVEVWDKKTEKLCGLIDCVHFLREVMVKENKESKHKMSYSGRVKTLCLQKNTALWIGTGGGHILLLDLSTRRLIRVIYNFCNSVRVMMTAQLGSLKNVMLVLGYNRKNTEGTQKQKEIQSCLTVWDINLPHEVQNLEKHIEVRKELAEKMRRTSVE
# testDescription: LRRK2 Kinase Activity Assay (LanthaScreen TR-FRET), wild type
# Type: biochemical
# reportedConditions: recombinant wild type LRRK2, 25 μM ATP, 400 nM LRRKtide, 60 min; class symbols
pIC50: −log10 of the molar value.

Prompt: Reported pIC50 for Cc1ncc(-c2n[nH]c3ccc(N[C@H]4CCCc5cc(C#N)ccc54)cc23)o1 (single isomer, unassigned) : what is it?
Response: > 7.00

Prompt: Reported pIC50 for N#Cc1ccc2c(c1)CCC[C@@H]2Oc1ccc2[nH]nc(-c3cnoc3)c2c1 (single isomer, unassigned) [Example 17, enantiomer 2] : what is it?
Response: 6.00 to 7.00

Prompt: Reported pIC50 for COc1cc2c(cc1C#N)CCC[C@@H]2Nc1ccc2[nH]nc(-c3cnoc3)c2c1 (single isomer, unassigned) [Example 114, enantiomer 1] : what is it?
Response: 6.00 to 7.00

Prompt: Reported pIC50 for N#Cc1cnc2c(c1)CCC[C@@H]2Nc1ccc2[nH]nc(-c3cnn(C(F)F)c3)c2c1 (single isomer, unassigned) [Example 49, enantiomer 1] : what is it?
Response: > 7.00

Prompt: Reported pIC50 for N#Cc1ccc2c(c1)C(F)(F)C[C@@H]2Nc1ccc2[nH]nc(-c3cnco3)c2c1 (single isomer, unassigned) [Example 138, enantiomer 1] : what is it?
Response: > 7.00

Prompt: Reported pIC50 for Cc1n[nH]c2ccc(N[C@H]3CCc4c(C#N)cccc43)cc12 (single isomer, unassigned) [Example 129, enantiomer 2] : what is it?
Response: 6.00 to 7.00
